Every entry's value here was drawn from patent US8288370B2.

measured-on: UniProt:Q12809
Sequence (Q12809 whole entry): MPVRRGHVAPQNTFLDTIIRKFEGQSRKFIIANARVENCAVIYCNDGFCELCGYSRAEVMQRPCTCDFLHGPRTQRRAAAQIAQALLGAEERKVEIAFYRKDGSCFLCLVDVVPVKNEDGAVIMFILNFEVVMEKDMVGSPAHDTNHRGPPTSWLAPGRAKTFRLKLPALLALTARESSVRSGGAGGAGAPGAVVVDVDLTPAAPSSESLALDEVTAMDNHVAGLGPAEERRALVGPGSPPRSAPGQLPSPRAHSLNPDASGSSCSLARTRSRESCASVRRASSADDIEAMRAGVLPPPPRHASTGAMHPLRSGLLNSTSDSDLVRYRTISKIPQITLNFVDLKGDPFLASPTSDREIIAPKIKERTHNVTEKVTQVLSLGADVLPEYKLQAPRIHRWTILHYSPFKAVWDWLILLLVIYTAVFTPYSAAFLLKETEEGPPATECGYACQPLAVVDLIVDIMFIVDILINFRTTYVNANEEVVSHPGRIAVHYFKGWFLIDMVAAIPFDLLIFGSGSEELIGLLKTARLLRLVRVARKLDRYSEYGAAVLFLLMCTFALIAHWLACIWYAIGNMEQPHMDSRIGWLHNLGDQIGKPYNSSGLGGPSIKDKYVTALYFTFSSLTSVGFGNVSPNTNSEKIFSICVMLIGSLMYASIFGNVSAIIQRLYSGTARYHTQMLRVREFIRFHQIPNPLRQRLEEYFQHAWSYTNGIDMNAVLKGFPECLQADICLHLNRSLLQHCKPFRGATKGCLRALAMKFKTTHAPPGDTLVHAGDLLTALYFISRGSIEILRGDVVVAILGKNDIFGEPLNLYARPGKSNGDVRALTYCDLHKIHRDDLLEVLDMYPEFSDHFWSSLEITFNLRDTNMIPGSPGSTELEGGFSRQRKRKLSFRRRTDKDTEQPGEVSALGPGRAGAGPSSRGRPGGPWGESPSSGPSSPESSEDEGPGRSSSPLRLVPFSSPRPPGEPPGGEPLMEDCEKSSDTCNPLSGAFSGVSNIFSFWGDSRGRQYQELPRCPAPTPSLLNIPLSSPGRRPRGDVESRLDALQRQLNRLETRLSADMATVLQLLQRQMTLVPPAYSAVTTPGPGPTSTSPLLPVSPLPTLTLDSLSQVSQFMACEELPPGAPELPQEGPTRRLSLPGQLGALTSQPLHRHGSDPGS
test-details: Activity against hERG (planar-array-based voltage clamp, Kiss et al.)
Counter-ions that a name gives are not always drawn.
quantity-kind: IC50 (µM)
Express the result in µM but write the number alone.

The value of IC50 measured for the compound CN(C[C@@H](CCN1CC(N2CCN3C(=O)CC[C@@H]3C2)C1)c1ccc(F)cc1)C(=O)c1cc(Br)cc(C(F)(F)F)c1 [Ex 1, dihydrochloride] turned out to be 12.4

----------
test-details: Metabolic stability in liver microsomes (intrinsic clearance)
Format: in vitro ADME
setup-conditions: human, pH 7.4, HLM
Counter-ions that a name gives are not always drawn.
quantity-kind: microsomal CLint at 1 μM (µL/min/mg)
// note: answer is a bare numeric in µL/min/mg

Sure, the documented microsomal CLint at 1 μM for CN(C[C@@H](CCN1CC(N2CCN3C(=O)CC[C@@H]3C2)C1)c1ccc(F)cc1)C(=O)c1cc(Br)cc(C(F)(F)F)c1 [Ex 1, dihydrochloride] is 14

----------
measured-on: CYP3A4 (Homo sapiens, UniProt P08684)
Sequence (P08684 whole entry): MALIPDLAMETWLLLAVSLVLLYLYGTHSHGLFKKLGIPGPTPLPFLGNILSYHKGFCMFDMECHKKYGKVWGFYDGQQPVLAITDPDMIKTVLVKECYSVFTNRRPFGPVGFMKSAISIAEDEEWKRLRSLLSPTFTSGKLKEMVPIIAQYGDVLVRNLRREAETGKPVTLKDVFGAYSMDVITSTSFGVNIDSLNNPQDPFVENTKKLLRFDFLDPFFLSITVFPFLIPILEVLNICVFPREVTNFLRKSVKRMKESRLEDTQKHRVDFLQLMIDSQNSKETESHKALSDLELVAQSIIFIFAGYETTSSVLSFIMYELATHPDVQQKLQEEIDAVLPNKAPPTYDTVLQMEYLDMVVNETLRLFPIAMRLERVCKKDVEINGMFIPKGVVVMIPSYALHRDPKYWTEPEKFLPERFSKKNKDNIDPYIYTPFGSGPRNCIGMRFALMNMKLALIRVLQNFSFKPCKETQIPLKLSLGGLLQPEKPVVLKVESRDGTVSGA
Structures can show the parent of a compound that is named as a salt.
quantity-kind: IC50

Form field IC50, entry CN(C[C@@H](CCN1CC(N2CCN3C(=O)CC[C@@H]3C2)C1)c1ccc(F)cc1)C(=O)c1cc(Br)cc(C(F)(F)F)c1 [Ex 1, dihydrochloride] : > 50 µM
